assay: in vitro; conditions: human, hela cells, % viability
measurement-kind: viability at 28.5 h, 10 µM (%)
Please respond with the number in % and leave the unit unwritten.

Solved entries:
>>> measured_result("O=C1NN(c2ccc(Br)cc2)C(=O)/C1=C\\c1ccc(-c2ccc3c(c2)C(=O)NC3=O)o1 [CBK262968]")
111
>>> measured_result("CCOC(=O)N[C@@H](CC1CCCCC1)C(=O)NCCc1ccc(S(N)(=O)=O)cc1 [CBK015131]")
106
>>> measured_result("c1ccc2c(-c3cn4ccnc4c(NC4CCOCC4)n3)cccc2c1 [CBK038047]")
89.9
>>> measured_result("O=C1CC(=O)N(Cc2ccc(F)cc2)C(=O)N1 [CBK291156]")
95.2
>>> measured_result("CN1C2C=C(N(CCc3ccccc3)C(=O)c3ccc(-c4ccccc4)cc3)CC1CC2 (stereo not shown) [CBK262596C]")
104

Data request: Need viability at 28.5 h, 10 µM, item COC(=O)COc1ccc(C(NC(=O)c2ccccc2)C(Cl)(Cl)Cl)cc1 (stereo not shown) [CBK265437]
Data returned: 97.8

Data request: Please answer likewise for CC(=O)Nc1nonc1-c1nc2ccccc2n1CCC#N [CBK062641]
Data returned: 100

====

experiment: in vitro; conditions: human, hela cells, % viability
measurement-kind: viability at 28.5 h, 10 µM (%)
# value in %; strip the unit string

Check out these entries, answers already filled in.
>>> measured_result("Cc1cc(C)nc(CCNCc2c(C(C)C)nn(C)c2N(C)C)n1")
112
>>> measured_result("Cc1cc(C)cc(C(=O)N(CCc2ccccc2)C2CC3CCC(C2)N3C)c1 (centres unmarked) [CBK262612C]")
83.7
>>> measured_result("CN(C)CCNC(=O)C(=O)Nc1ccc(Cl)cc1")
107
>>> measured_result("Cc1ccc2nc(COC(=O)c3ccc(Cn4nnc5ccccc54)cc3)cn2c1")
96.6

# next molecule below
Data request: Can you look up the measured viability at 28.5 h, 10 µM of CC(=O)c1ccc(-c2cnc3[nH]c(=O)n(C4CCCCC4)c3n2)s1 for me?
Data returned: 103

====

experiment: in vitro; conditions: human, hela cells, % viability
Listed molecules paired with reported viability at 28.5 h, 10 µM
Report as a plain number; the unit % is understood.

# example entries with known answers
>>> measured_result("N#Cc1c(Cl)cccc1Oc1ccc(S(=O)(=O)Nc2cccc(C(=O)O)c2)cc1 [CBK155718]")
108
>>> measured_result("COC(=O)c1ccc(NC(=O)c2oc3ccc(Br)cc3c2C)cc1 [CBK296758]")
95.7
>>> measured_result("Cc1cccc(-c2ncc(NC(=O)c3ccccn3)nc2-c2ccc(N)cc2)c1 [CBK036694]")
93.3
>>> measured_result("O=C(NCCn1cccn1)N1CCC(Cc2ccc(F)cc2)CC1 [CBK304381]")
91.7
>>> measured_result("O=C(NCc1cccs1)c1ccccc1Nc1cccc(C(F)(F)F)c1 [CBK149557]")
104
>>> measured_result("CNCc1cc(Br)c(OCC(=O)Nc2ccccc2OC)c(OC)c1 [CBK107772]")
106
>>> measured_result("CCNC(=S)N[C@H]1CC[C@@]2(Cc3ccc(OC)cc3)CCN(C)[C@H]2C1 [CBK004257]")
101
>>> measured_result("Cc1nn(CCC#N)c(C)c1[C@@H]1C=C[C@@H](NC(=O)NC(C)C)C1 [CBK289172]")
89.2

Data request: Given the molecule COCCNC(=O)[C@@H](C)C1CC[C@@]2(C)CC[C@H](NS(C)(=O)=O)[C@@H](C)[C@@H]2[C@H]1O (stereo partly drawn) [CBK289457] , what is its reported viability at 28.5 h, 10 µM?
Data returned: 93.5
